Property: IC50; scope: individual compounds
# Assay System: EGFR (C797S L858R) (Homo sapiens, UniProt P00533, C797S/L858R)
# Construct: purchased signalchem
# Sequence (P00533 25-1210 C797S/L858R): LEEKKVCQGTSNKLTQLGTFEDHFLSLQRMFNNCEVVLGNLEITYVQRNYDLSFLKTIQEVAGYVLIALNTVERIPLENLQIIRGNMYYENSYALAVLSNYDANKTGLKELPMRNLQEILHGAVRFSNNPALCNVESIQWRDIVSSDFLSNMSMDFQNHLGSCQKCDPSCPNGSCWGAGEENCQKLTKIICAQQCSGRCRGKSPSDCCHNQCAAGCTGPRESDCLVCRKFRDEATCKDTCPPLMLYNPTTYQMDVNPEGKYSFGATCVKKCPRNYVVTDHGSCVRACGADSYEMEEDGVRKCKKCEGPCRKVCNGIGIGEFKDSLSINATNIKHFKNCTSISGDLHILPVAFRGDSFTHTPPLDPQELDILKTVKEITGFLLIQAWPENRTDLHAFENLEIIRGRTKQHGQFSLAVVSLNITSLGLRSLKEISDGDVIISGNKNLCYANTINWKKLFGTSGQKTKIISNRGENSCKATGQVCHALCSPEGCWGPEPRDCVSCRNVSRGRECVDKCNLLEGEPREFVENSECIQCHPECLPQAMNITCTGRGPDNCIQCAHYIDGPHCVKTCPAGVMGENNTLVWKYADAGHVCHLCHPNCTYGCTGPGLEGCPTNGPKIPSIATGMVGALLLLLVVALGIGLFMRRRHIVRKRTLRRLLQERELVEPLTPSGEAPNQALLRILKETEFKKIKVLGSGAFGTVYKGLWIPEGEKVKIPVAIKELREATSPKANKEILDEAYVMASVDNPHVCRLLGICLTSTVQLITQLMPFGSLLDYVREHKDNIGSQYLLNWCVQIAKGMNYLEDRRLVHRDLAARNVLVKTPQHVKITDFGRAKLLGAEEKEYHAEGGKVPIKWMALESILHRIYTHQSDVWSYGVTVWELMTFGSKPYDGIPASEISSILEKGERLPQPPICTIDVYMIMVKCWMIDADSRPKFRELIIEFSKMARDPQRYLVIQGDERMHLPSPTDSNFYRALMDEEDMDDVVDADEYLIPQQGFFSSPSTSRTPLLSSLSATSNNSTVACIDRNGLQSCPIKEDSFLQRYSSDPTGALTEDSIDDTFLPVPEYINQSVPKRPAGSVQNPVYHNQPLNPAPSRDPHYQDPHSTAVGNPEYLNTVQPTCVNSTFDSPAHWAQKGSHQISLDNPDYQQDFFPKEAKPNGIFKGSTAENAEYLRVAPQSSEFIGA
# Assay Details: Inhibition of EGFR (C797S L858R) biochemical enzymatic activity (HTRF)
# Setup Conditions: EGFR L858-C797S, 1 mM ATP, 1 h, room temperature, read-out: IC50 (nM) @L858-C797S
Readout Label: IC50

INSERT INTO measurements (compound, reported_measurement) VALUES
  ('Cn1ncc2c1OCCN1CC3CCC(C3)(C1)n1c(nc3ccc(N4CCC(N5CCOCC5)C4)cc31)NC(=O)c1cc-2c(=O)n(C)c1 (single isomer, unassigned) [Example A104A]', '> 5000 nM'),
  ('CN(C)CCC1CN(c2ccc3nc4n(c3c2)C23CCC(CN(CCOc5c(cnn5C)-c5cc(cn(C)c5=O)C(=O)N4)C2)C3)C1 (single isomer, unassigned) [Example A95A]', '> 5000 nM'),
  ('CN1CCC12CCN(c1ccc3nc4n(c3c1)C13CCC(CN(CCOc5c(cnn5C)-c5cc(cn(C)c5=O)C(=O)N4)C1)C3)CC2 (single isomer, unassigned) [Example A67A]', '> 5000 nM'),
  ('Cn1ncc2c1OCCN(C1COC1)CCn1c(nc3ccccc31)NC(=O)c1cc-2c(=O)n(C)c1 [Example A5]', '> 5000 nM'),
  ('Cn1ncc2c1OCCN1CC3CCC(C3)(C1)n1c(nc3ccc(N4CCC(N5CC(F)C5)C4)cc31)NC(=O)c1cc-2c(=O)n(C)c1 (single isomer, unassigned) [Example A94A]', '> 5000 nM');
